Reported IC50 for target or system SIK2 (Homo sapiens (Human), UniProt Q9H0K1), by entry.
measured.metric: IC50 (nM)

Examples with their reported IC50 follow.
CSc1cc(-c2cnc3ccccn23)cc(OC[C@]2(N)CCSC2)c1C#N (mixture of isomers) ... 1.3
CCc1ccc2ncc(-c3cc(OCC4(N)CCCC4)c(C#N)c(SC)c3)n2c1C#N ... 1.7
COc1cc(C#N)n2c(-c3cc(OCC4(N)CCCC4)c(C#N)c(SC)c3)cnc2c1 ... 0.5

A = CC[C@H]1CCC[C@]1(N)COc1cc(-c2cnc3cccc(OC)n23)cc(OC)c1C#N
B = COc1cc(C#N)n2c(-c3cc(OC)c(C#N)c(OCC4(N)CCCCC4)c3)cnc2c1
stdin: // compare: A vs B , metric IC50, want the smaller Reply briefly: the label of your chosen item.
stdout: B

A = CSc1cc(-c2cnc3ccccn23)cc(OC[C@@]2(N)CCC[C@H](C(F)(F)F)C2)c1C#N.CSc1cc(-c2cnc3ccccn23)cc(OC[C@]2(N)CCC[C@@H](C(F)(F)F)C2)c1C#N (mixture of isomers) [Example 33B]
B = COc1ccc2ncc(-c3cc(OCC4(N)CCCC4)c(C#N)c(SC)c3)n2c1C#N
stdin: // compare: A vs B , metric IC50, want the smaller Reply briefly: the label of your chosen item.
stdout: B
(B: 1 nM, A: 9.9 nM)
